The entries below are paired with their reported Ca2+-Uptake C10.
biological target: SERCA2a (Sus scrofa, UniProt P11607); construct: Cardiac SR vesicles were isolated from fresh porcine left ventricular tissue using differential centrifugation; from tissue; host or cells: porcine left ventricular tissue (cardiac SR vesicles); assay: Oxalate-supported Fluo-4 Ca2+-uptake (Ca2+-transport) assay in pig cardiac SR (pCSR) vesicles; assay type: biochemical; settings: [Ca2+]MID (pCa6.2), concentration yielding 10% effect
Sequence (P11607 1-997 isoform P11607-2): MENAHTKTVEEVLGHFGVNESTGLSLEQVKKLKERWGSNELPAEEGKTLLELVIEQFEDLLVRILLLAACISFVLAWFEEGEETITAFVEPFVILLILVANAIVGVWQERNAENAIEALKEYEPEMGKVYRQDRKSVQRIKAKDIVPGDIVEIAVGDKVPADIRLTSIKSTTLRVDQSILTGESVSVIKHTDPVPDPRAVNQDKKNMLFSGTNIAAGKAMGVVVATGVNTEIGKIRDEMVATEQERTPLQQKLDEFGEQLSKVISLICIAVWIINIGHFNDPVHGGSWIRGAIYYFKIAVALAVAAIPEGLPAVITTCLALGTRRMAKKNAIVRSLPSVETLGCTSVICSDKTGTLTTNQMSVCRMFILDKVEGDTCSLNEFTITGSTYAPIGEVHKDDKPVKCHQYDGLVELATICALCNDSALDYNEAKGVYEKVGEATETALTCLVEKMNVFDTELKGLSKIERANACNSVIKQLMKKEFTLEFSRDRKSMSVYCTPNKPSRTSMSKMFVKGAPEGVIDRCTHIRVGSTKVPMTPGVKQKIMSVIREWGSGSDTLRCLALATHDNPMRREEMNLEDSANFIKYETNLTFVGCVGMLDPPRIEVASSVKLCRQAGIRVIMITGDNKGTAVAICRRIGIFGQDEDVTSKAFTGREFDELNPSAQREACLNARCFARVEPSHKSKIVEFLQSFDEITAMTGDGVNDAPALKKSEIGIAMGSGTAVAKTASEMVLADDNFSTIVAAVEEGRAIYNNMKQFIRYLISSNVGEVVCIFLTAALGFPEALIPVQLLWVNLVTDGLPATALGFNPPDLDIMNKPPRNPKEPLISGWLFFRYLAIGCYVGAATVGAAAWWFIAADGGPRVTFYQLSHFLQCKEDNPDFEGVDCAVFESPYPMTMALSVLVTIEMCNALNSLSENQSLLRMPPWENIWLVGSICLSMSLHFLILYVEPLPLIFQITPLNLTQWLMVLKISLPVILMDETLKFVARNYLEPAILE
# value in µM; strip the unit string

Solved cases (5 shown):
{"Compound": "COc1ccc(Cn2cc(C(=O)N(C)Cc3ccnc4ccccc34)nn2)cc1 [Compound 10]", "Observed value": 7.9}
{"Compound": "c1ccc(-c2cc(CN3CCN(c4ncnc5ccccc45)CC3)on2)cc1 [Compound 4]", "Observed value": 47}
{"Compound": "OCC1(CCOc2ccccc2)CCCN(Cc2cc3c(cc2Cl)OCO3)C1 (stereo not drawn) [Compound 13]", "Observed value": 1.0}
{"Compound": "CCc1cnc(N2CC[C@@H](c3ccc4ccccc4c3)[C@H](O)C2)nc1 (relative stereo) [Compound 16]", "Observed value": 4.2}
{"Compound": "COC(=O)CSc1ncc(-c2ccc(F)cc2)c(C2CCCN(C(=O)c3cccc(F)c3)C2)n1 (stereo not drawn) [Compound 11]", "Observed value": 0.5}

# next compound below
Please look up its Ca2+-Uptake C10: COc1ccc(Cc2noc(CN3CCN(c4nc5ccccc5s4)CC3)n2)cc1OC [Compound 5]
22.5
